test system: 876862-298-R-J1-PDC complex spheroids, viability % test/control; test: Anticancer human tumor 876862-298-R-J1-PDC patient-derived endometrial carcinoma cell line growth inhibition [CLK]; conditions: second compound 3.16 µM; first compound 0.316 µM; hits give low values;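 note: spheroids exposed to drugs for 7 days before readout; 100% = DMSO vehicle control wells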
readout-kind: viability, T/C (%)
Quick reminder: number only, in %, skip the unit.

-- ask Report viability, T/C, nothing else, for this compound: Nc1ccccc1NC(=O)c1ccc(CNC(=O)OCc2cccnc2)cc1 + CNC(=O)c1ccc(Nc2nc(OC3CCCC3)c3c(-c4ccc5nc(C)oc5c4)c[nH]c3n2)c(OC)c1
-- reply 22.5

-- ask Identify viability, T/C associated with the compound CC(CO)NC(=O)c1cc(-c2ccc(Cl)cc2)nn(-c2cnn(C)c2)c1=O (stereo unspecified) + CN1CCN(c2cc(C(=O)Nc3cc4cc(-c5cnn(C)c5)ccc4cn3)ccn2)CC1
-- reply 2.58

-- ask Give a short answer stating reported viability, T/C for CC(Nc1ccc2c(c1)OCCn1cc(N3C(=O)OCC3C(F)F)nc1-2)C(N)=O (stereo unspecified) + CN1CCN(c2cc(C(=O)Nc3cc4cc(-c5cnn(C)c5)ccc4cn3)ccn2)CC1 .
-- reply 1.55

-- ask Item CC1(C)CCC(CN2CCN(c3ccc(C(=O)NS(=O)(=O)c4ccc(NCC5CCOCC5)c([N+](=O)[O-])c4)c(Oc4cnc5[nH]ccc5c4)c3)CC2)=C(c2ccc(Cl)cc2)C1 + CN1CCN(c2cc(C(=O)Nc3cc4cc(-c5cnn(C)c5)ccc4cn3)ccn2)CC1 : provide viability, T/C
-- reply 0.52

-- ask Look up and report measured viability, T/C for this entry: Nc1ccccc1NC(=O)c1ccc(CNC(=O)OCc2cccnc2)cc1 + CN1CCN(c2cc(C(=O)Nc3cc4cc(-c5cnn(C)c5)ccc4cn3)ccn2)CC1
-- reply 1.06

-- ask Read the entry Nc1ccn(C2OC(CO)C(O)C2(F)F)c(=O)n1 (stereo unspecified) + CNC(=O)c1ccc(Nc2nc(OC3CCCC3)c3c(-c4ccc5nc(C)oc5c4)c[nH]c3n2)c(OC)c1 and write its reported viability, T/C.
-- reply 5.8

-- ask Dear colleague, please send me the reported viability, T/C for CCN1CCN(Cc2ccc(Nc3ncc(F)c(-c4cc(F)c5nc(C)n(C(C)C)c5c4)n3)nc2)CC1 + CNC(=O)c1ccc(Nc2nc(OC3CCCC3)c3c(-c4ccc5nc(C)oc5c4)c[nH]c3n2)c(OC)c1 when you can.
-- reply 30.1

-- ask Let me know recorded viability, T/C for COc1c(OCCCN2CCOCC2)ccc2c3n(c(=NC(=O)c4cnc(N)nc4)nc12)CCN3 + CN1CCN(c2cc(C(=O)Nc3cc4cc(-c5cnn(C)c5)ccc4cn3)ccn2)CC1 , thanks.
-- reply 1.55

-- ask Provide only the value of recorded viability, T/C for C=C(F)C(=O)N1CCN(c2nc(OCC3CCCN3C)nc3c2CCN(c2cccc4cccc(Cl)c24)C3)CC1CC#N (stereo unspecified) + CN1CCN(c2cc(C(=O)Nc3cc4cc(-c5cnn(C)c5)ccc4cn3)ccn2)CC1
-- reply 2.16

-- ask Item C=CC(=O)N1CCN(c2nc(=O)n(-c3c(C)ccnc3C(C)C)c3nc(-c4c(O)cccc4F)c(F)cc23)C(C)C1 (stereo unspecified) + CNC(=O)c1ccc(Nc2nc(OC3CCCC3)c3c(-c4ccc5nc(C)oc5c4)c[nH]c3n2)c(OC)c1 : provide viability, T/C
-- reply 23.1

-- ask Let me know recorded viability, T/C for CCN1CCN(Cc2ccc(Nc3ncc(F)c(-c4cc(F)c5nc(C)n(C(C)C)c5c4)n3)nc2)CC1 + CN1CCN(c2cc(C(=O)Nc3cc4cc(-c5cnn(C)c5)ccc4cn3)ccn2)CC1 , thanks.
-- reply 2.18
